- ASSAY_SYSTEM: JAK3 (Homo sapiens, UniProt P52333)
- Sequence (P52333 whole entry): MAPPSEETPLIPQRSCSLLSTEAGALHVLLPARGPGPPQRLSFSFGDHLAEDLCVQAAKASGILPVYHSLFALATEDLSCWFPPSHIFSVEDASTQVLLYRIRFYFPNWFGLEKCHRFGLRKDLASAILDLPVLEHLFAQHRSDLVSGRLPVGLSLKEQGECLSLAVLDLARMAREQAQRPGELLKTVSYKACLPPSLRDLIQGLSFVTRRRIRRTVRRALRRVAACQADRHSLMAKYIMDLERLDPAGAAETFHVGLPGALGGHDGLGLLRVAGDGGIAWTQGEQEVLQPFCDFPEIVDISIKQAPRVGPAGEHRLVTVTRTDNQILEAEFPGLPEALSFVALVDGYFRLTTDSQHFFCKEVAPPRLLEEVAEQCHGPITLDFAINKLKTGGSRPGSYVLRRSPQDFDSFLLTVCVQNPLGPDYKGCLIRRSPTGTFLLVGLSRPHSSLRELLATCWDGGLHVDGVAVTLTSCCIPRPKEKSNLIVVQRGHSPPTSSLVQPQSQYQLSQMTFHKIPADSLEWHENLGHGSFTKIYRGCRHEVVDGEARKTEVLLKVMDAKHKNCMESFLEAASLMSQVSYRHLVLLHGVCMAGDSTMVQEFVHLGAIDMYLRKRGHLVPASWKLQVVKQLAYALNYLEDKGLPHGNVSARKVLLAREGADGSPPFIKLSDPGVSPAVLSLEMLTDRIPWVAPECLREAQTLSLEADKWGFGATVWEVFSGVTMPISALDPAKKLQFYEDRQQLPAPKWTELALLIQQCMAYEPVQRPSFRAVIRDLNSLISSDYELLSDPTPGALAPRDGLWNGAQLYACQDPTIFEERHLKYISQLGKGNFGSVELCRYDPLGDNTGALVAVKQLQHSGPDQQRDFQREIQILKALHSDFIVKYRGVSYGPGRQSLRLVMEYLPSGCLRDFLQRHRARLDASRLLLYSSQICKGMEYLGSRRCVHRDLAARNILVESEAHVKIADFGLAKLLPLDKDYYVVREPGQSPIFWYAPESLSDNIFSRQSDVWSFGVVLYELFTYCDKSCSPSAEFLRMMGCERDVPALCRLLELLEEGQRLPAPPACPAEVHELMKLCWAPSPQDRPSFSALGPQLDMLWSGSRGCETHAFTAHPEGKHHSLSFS
- ASSAY_NAME: JAK3 inhibition assay (33P incorporation into poly(Glu)4Tyr)
- Type: biochemical
- RUN_PARAMETERS: Table 6; enzyme inhibition data (Ki)
MEASUREMENT_LABEL: Ki

Before answering, review these 4 worked examples.
CCCOc1ccccc1-c1ccnc2[nH]ccc12: 500 to 5000 nM
c1ccc2c(c1)Oc1c(cccc1-c1ccnc3[nH]ccc13)S2: > 5000 nM
CCCS(=O)(=O)N1CC[C@H](Nc2c(Cl)cnc3[nH]ccc23)C1: < 500 nM
CCOC(=O)[C@@H]1[C@@H](C)CCN1C(=O)c1csc(-c2ccnc3[nH]ccc23)n1: 500 to 5000 nM

Proceeding to the next compound to report its Ki.
Query string: Provide value of Ki for this record tested with JAK3 (Homo sapiens, UniProt P52333): `CCCN(CCC#N)C(=O)c1cc(-c2c(F)cnc3[nH]ccc23)c[nH]1`
Result string: < 500 nM

---

- ASSAY_SYSTEM: ROCK I (Homo sapiens, UniProt Q13464)
- Sequence (Q13464 whole entry): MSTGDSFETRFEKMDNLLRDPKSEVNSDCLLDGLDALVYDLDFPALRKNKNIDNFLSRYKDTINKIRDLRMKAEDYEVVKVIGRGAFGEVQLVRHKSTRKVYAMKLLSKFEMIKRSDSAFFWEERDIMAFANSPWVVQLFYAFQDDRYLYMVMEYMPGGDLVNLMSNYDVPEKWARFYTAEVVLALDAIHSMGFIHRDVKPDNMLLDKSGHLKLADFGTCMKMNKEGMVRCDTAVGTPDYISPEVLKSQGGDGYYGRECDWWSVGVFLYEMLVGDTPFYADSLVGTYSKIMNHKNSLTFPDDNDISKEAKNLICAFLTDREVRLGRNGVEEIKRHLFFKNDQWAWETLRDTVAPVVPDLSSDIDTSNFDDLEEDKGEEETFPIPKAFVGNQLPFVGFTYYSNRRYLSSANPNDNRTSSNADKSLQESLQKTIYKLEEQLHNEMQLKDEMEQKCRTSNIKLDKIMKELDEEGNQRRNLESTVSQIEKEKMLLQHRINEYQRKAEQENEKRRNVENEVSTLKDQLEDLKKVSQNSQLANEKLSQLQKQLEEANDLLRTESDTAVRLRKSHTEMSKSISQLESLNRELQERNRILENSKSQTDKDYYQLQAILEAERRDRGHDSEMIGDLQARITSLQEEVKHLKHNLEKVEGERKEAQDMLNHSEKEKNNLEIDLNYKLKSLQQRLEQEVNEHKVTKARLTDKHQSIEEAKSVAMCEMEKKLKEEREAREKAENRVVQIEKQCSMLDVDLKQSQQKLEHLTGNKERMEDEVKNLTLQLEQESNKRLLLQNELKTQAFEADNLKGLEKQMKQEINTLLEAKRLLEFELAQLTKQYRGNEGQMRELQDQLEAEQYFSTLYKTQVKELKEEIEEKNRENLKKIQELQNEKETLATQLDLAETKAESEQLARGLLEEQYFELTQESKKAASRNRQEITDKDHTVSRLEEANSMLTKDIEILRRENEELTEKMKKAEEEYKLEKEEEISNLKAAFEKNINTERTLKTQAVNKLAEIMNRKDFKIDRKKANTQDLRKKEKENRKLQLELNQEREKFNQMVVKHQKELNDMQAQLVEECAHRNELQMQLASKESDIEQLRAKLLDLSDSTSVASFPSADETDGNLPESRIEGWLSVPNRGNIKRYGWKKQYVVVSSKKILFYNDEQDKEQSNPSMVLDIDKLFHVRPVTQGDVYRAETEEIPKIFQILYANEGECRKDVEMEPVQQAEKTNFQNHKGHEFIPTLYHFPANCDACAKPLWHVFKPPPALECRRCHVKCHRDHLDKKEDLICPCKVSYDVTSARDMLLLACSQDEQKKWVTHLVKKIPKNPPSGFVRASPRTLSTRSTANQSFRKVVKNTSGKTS
- ASSAY_NAME: ROCK-I inhibition assay (radioactive enzyme assay, MBP substrate)
- Format: biochemical
- RUN_PARAMETERS: Table 6; enzyme inhibition data (Ki)
MEASUREMENT_LABEL: Ki

Before answering, review these 5 worked examples.
CCN(CC)C(=O)c1cc(-c2ccnc3[nH]ccc23)c[nH]1: < 0.5 µM
C#CCN(C)C(=O)c1cc(-c2c(Cl)cnc3[nH]ccc23)c[nH]1: 0.5 to 5 µM
CN(CCc1ccccn1)C(=O)c1cc(-c2ccnc3[nH]ccc23)c[nH]1: < 0.5 µM
O=C(NCC(F)(F)F)c1ccc(-c2ccnc3[nH]ccc23)s1: < 0.5 µM
O=C(NCC1CC1)c1cc(-c2ccnc3[nH]ccc23)c[nH]1: < 0.5 µM

Query string: Need Ki, item `N#CCCNC(=O)c1cc(-c2ccnc3[nH]ccc23)c[nH]1`
Result string: < 0.5 µM

Query string: Follow-up item: `FC(F)(F)c1ccccc1-c1ccnc2[nH]ccc12`
Result string: 0.5 to 5 µM

Query string: Follow-up item: `CNC(=O)c1cc(-c2c(Cl)cnc3[nH]ccc23)c[nH]1`
Result string: 0.5 to 5 µM

Query string: Follow-up item: `N#CCN(Cc1ccccc1)C(=O)c1cc(-c2c(F)cnc3[nH]ccc23)c[nH]1`
Result string: < 0.5 µM

Query string: Follow-up item: `CCCOC(=O)N1CC[C@H](Nc2c(Cl)cnc3[nH]ccc23)C1`
Result string: > 4 µM

Query string: Follow-up item: CC1CC[C@@H](C)N1C(=O)c1csc(-c2ccnc3[nH]ccc23)n1 (stereo partly drawn)
Result string: < 0.5 µM

Query string: Follow-up item: `O=C(NC1CCC1)c1cc(-c2ccnc3[nH]ccc23)c[nH]1`
Result string: < 0.5 µM

Query string: Follow-up item: `O=C(c1cc(-c2c(Cl)cnc3[nH]ccc23)c[nH]1)N1CCC(CO)CC1`
Result string: 0.5 to 5 µM

Query string: Follow-up item: `CCCN(CCC#N)C(=O)c1cc(-c2c(F)cnc3[nH]ccc23)c[nH]1`
Result string: < 0.5 µM

Query string: Follow-up item: `CC(C)CN(CC(C)C)C(=O)c1cc(-c2c(Cl)cnc3[nH]ccc23)c[nH]1`
Result string: > 4 µM

Query string: Follow-up item: O=C(c1cc(-c2ccnc3[nH]ccc23)c[nH]1)N1CCCC1CO (stereo not drawn)
Result string: 0.5 to 5 µM

Query string: Follow-up item: `CCCCN(CCC#N)C(=O)c1cc(-c2ccnc3[nH]ccc23)c[nH]1`
Result string: < 0.5 µM

Query string: Follow-up item: N#CCC(=O)N1CCCC(Nc2c(Cl)cnc3[nH]ccc23)C1 (stereo not drawn)
Result string: 0.5 to 5 µM

---

- ASSAY_SYSTEM: UniProtKB O60674
- Sequence (O60674 whole entry): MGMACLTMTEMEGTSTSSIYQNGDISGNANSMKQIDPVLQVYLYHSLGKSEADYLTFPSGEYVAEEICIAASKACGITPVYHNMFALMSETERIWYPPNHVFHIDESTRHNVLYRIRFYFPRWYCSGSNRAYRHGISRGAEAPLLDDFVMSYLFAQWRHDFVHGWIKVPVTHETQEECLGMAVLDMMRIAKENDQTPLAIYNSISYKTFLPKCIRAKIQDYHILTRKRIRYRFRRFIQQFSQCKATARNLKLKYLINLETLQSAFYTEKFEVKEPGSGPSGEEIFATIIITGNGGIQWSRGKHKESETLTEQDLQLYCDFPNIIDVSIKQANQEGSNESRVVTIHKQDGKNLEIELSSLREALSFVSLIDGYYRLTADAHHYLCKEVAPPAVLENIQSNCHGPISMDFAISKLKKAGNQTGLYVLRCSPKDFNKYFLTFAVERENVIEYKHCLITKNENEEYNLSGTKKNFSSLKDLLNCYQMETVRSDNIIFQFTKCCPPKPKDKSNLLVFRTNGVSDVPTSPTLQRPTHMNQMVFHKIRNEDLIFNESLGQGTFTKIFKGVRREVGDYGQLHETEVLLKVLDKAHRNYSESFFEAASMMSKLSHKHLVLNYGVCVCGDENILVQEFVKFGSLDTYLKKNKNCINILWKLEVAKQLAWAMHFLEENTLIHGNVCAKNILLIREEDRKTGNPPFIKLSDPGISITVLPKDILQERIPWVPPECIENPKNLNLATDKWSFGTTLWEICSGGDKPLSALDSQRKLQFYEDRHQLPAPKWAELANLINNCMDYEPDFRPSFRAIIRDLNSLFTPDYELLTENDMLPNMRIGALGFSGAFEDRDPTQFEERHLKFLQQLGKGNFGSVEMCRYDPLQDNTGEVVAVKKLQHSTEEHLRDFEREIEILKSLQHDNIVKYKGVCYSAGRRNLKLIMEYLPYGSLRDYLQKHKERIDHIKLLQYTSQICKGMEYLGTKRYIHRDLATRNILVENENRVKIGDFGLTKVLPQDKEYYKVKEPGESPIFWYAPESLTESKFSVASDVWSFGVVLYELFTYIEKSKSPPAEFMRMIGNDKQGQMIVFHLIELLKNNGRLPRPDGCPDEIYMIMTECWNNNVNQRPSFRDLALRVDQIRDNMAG
- ASSAY_NAME: JAK2 inhibition assay (as Example 3 with JAK-2 enzyme)
- Type: biochemical
- RUN_PARAMETERS: Table 6; enzyme inhibition data (Ki)
pKi: −log10 of the molar value.
MEASUREMENT_LABEL: pKi

Cc1ccccc1-c1ccnc2[nH]ccc12: < 5.30
Clc1cnc2[nH]ccc2c1N[C@@H]1CCC[C@H]1OCc1ccccc1: > 6.30
O=C(c1cc(-c2ccnc3[nH]ccc23)c[nH]1)N1CCCC1C(F)(F)F (stereo not shown): > 6.30

Query string: Need pKi, item `O=C(Nc1ccccc1)c1ccc(-c2ccnc3[nH]ccc23)cc1`
Result string: > 6.30

Query string: Follow-up item: Clc1cnc2[nH]ccc2c1NC1CCCN(Cc2ccccc2)C1 (stereo not shown)
Result string: > 6.30

Query string: Follow-up item: `CCCN(CC(F)(F)F)C(=O)c1cc(-c2c(F)cnc3[nH]ccc23)c[nH]1`
Result string: > 6.30

Query string: Follow-up item: `CCCN(CC1CC1)C(=O)c1cc(-c2c(F)cnc3[nH]ccc23)c[nH]1`
Result string: > 6.30

Query string: Follow-up item: `Clc1ccccc1-c1ccnc2[nH]ccc12`
Result string: 5.30 to 6.30

Query string: Follow-up item: `N#CCCN(Cc1ccccc1)C(=O)c1ccc(-c2ccnc3[nH]ccc23)s1`
Result string: > 6.30

Query string: Follow-up item: `CCCN(CCC#N)C(=O)c1cc(-c2ccnc3[nH]ccc23)c[nH]1`
Result string: > 6.30

Query string: Follow-up item: `N#CCCN(Cc1cccnc1)C(=O)c1ccc(-c2ccnc3[nH]ccc23)s1`
Result string: > 6.30

Query string: Follow-up item: CC1CCC(Nc2c(Cl)cnc3[nH]ccc23)CC1 (stereo not shown)
Result string: > 6.30

Query string: Follow-up item: `CCN(Cc1ccccc1)C(=O)c1cc(-c2c(Cl)cnc3[nH]ccc23)c[nH]1`
Result string: > 6.30

Query string: Follow-up item: `C=CCN(CC=C)C(=O)c1csc(-c2ccnc3[nH]ccc23)n1`
Result string: > 6.30

Query string: Follow-up item: `O=C(Cn1ccc2cnc(-c3ccnc4[nH]ccc34)nc21)NCC(F)(F)F`
Result string: > 6.30

Query string: Follow-up item: `O=C(CC1CCCC1)Nc1nc(-c2ccnc3[nH]ccc23)cs1`
Result string: > 6.30

Query string: Follow-up item: `COc1ccc(-c2ccnc3[nH]ccc23)c(OC)c1`
Result string: 5.30 to 6.30

---

- ASSAY_SYSTEM: ROCK I (Homo sapiens, UniProt Q13464)
- ASSAY_NAME: ROCK-I inhibition assay (radioactive enzyme assay, MBP substrate)
- Type: biochemical
- RUN_PARAMETERS: enzyme inhibition, Ki(app), Table 5
MEASUREMENT_LABEL: Ki

O=C(Nc1cccc(-c2ccnc3[nH]ccc23)n1)c1ccccc1 [compound 100]: 500 to 5000 nM
CCN(CC)c1cccc(-c2ccnc3[nH]ccc23)n1 [compound 52]: < 500 nM
CN(CCC(O)c1ccccc1)c1cccc(-c2ccnc3[nH]ccc23)n1 (stereo not drawn) [compound 53]: < 500 nM
CC(=O)N1CCCN(c2cccc(-c3c(Cl)cnc4[nH]ccc34)n2)CC1 [compound 76]: 500 to 5000 nM
Cc1cc(C)cc(-c2ccnc3[nH]ccc23)c1 [compound 112]: < 500 nM
C1=C(c2ccnc3[nH]ccc23)CCC1 [compound 27, 4-Cyclopentenyl-1H-pyrrolo[2,3b]pyridine]: < 500 nM
COC(=O)c1ccccc1-c1ccnc2[nH]ccc12 [compound 117]: 500 to 5000 nM
C[C@H](Nc1cccc(-c2ccnc3[nH]ccc23)n1)C(=O)NCC(F)(F)F [compound 122]: 500 to 5000 nM

Proceeding to the next compound to report its Ki.
Query string: Need Ki, item c1cc(-c2ccnc3[nH]ccc23)nc(N2CCC[C@H]2CN2CCCC2)c1 [compound 54]
Result string: 500 to 5000 nM

---

- ASSAY_SYSTEM: JAK3 (Homo sapiens)
- ASSAY_NAME: JAK3 inhibition assay (33P incorporation into poly(Glu)4Tyr)
- Type: biochemical
- RUN_PARAMETERS: Table 6; enzyme inhibition data (Ki)
pKi: −log10 of the molar value.
MEASUREMENT_LABEL: pKi

Before answering, review these 2 worked examples.
Clc1cnc2[nH]ccc2c1-c1ccco1 [compound 136]: > 6.30
CCCN(CC1CC1)C(=O)c1cc(-c2c(F)cnc3[nH]ccc23)c[nH]1 [compound 392]: > 6.30

Query string: Need pKi, item CN(CC(F)(F)F)C(=O)c1cc(-c2c(F)cnc3[nH]ccc23)c[nH]1 [compound 393]
Result string: > 6.30

Query string: Follow-up item: N#CCCNC(=O)c1cc(-c2ccnc3[nH]ccc23)c[nH]1 [compound 296]
Result string: > 6.30

Query string: Follow-up item: CCCN(CCC#N)C(=O)c1cc(-c2ccnc3[nH]ccc23)c[nH]1 [compound 302]
Result string: > 6.30
